Every entry's value here was drawn from patent US20200240995A1.

test system: Firefly luciferase modified at K529; experiment: Dual luciferase reporter (DLR) assay in E. coli whole cell lysates; assay type: cell-based; conditions: BocK at K529; normalized to Renilla luciferase, relative to wild-type CobB
measurement_kind: DLR activity [rel. to wild-type], BocK

Query: So what's the measured DLR activity [rel. to wild-type], BocK for this one? Debocylase-1: E. coli CobB mutant I131V V148L (protein, Debocylase-1, E. coli CobB mutant I131V V148L) KPRVLVLTGAGISAESGIRTFRAADGLWEEHRVEDVATPEGFDRDPELVQAFYNARRRQLQQPEIQPNAAHLALAKLQDALGDRFLLVTQNVDNLHERAGNTNVIHMHGELLKVRCSQSGQVLDWTGDVTPEDKCHCCQFPAPLRPHLVWFGEMPLGMDEIYMALSMADIFIAIGTSGHVYPAAGFVHEAKLHGAHTVELNLEPSQVGNEFAEKYYGPASQVVPEFVEKLLKGLKAGSIA
Response: 8.65 rel. to wild-type
